Every entry's value here was drawn from PubChem BioAssay.

// reported z-score for each item listed
Assay: adipocyte viability effects, profiling panel, cell-based, 3T3-L1 adipocytes, calcein-AM fluorescence, 48 h, basal (AID 1163); further: test concentration not given here
Conditions: 3T3-L1 adipocytes viability, higher = more signal
REPORTED PROPERTY: z-score

>>> measured_result("CN(C)CCCCCCNC(=O)[C@@H]1C[C@@H]2C(=O)N[C@@H](Cc3ccccc3)C(=O)N2[C@@H]1c1ccc(O)cc1")
0.502
>>> measured_result("[N-]=[N+]=Nc1ccccc1[C@H]1OC(c2ccc(OCCCO)cc2)=N[C@@]1(CCS(=O)(=O)c1ccccc1)C(N)=O")
0.733
>>> measured_result("COc1ccc([Si](C)(C)[C@@H]2[C@@H](CCO)O[C@]3(C(=O)N(Cc4ccc(N(C=O)c5ccccc5)cc4)c4ccccc43)[C@H]2C)cc1")
-0.193
>>> measured_result("CCC(CC)C(O)C1C=CC2C(=O)NC(=O)C2N1Nc1ccc(Cl)cc1Cl (configuration not stated)")
-0.326
>>> measured_result("Cc1ccc([C@@H]2C[C@@H](Sc3ccccc3)[C@H](C(=O)O)CN2S(=O)(=O)c2ccc(C)cc2)cc1")
0.154
>>> measured_result("C=CCC(OC(C)=O)[C@@H]1[C@@H](N(Cc2ccc(-c3ccccc3)cc2)C(=O)c2ccc(-c3ccccc3)cc2)c2cc(OCCCO)ccc2N1C(=O)Cc1ccc2ccccc2c1 (some centres not stated)")
0.367
>>> measured_result("COc1ccc([Si](C)(C)[C@@H]2[C@@H](CC(=O)N3CCC[C@H]3CO)O[C@]3(C(=O)N(c4ccccc4)c4ccccc43)[C@H]2C)cc1")
0.93

###

Assay: cell viability in Huh7 cells, primary screen, cytotoxicity control for HCV replication inhibitor project, CellTiter-Glo luminescence, basal, 48 h (AID 1143);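 further: Huh7 hepatoma cells carrying a hepatitis C replication reporter with no stimulus; test concentration not given here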
Details: Huh7 HCV replicon, higher = more signal, called active from +8 up or from −8 down
// reported z-score for each item listed
REPORTED PROPERTY: z-score

>>> measured_result("CN1C=C(C(=O)OCCS(C)(=O)=O)C(C(=O)OCCS(C)(=O)=O)=CC(c2ccc(CO)cc2)=CC1C1CC1 (stereo not drawn)")
-0.95
>>> measured_result("C=CCOC(=O)[C@H]1[C@@H]2C(=O)O[C@@H](c3ccccc3)[C@@H](c3ccccc3)N2[C@@H](c2ccc(OCCOC(=O)[C@H]3C[C@H]4C(=O)N[C@@H](CCCCN(C)C)C(=O)N4[C@H]3c3ccc(O)cc3)cc2)[C@]12C(=O)Nc1ccc(I)cc12")
-0.264
>>> measured_result("CC(=O)NCCCC[C@@H]1NC(=O)[C@H]2C[C@@H](C(=O)NCCCCCCNC(=O)CS)[C@@H](c3ccc(O)cc3)N2C1=O")
-0.133

###

Assay: binders of probe aFST on microarray, primary screen, stem cell growth factor project, biochemical, small-molecule microarray, fluorescence 635/667 (AID 1086);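 further: score merges 667 nm fluorescence with signal-to-noise of each printed compound spot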
Settings: higher = more signal
// reported composite z-score for each item listed
REPORTED PROPERTY: composite z-score

>>> measured_result("C=CCNC(=O)[C@H]1[C@@H]2C(=O)O[C@@H](c3ccccc3)[C@@H](c3ccccc3)N2[C@@H](c2ccccc2OCCO)[C@]12C(=O)Nc1ccc(C#CCC(C(=O)OC)C(=O)OC)cc12")
1.08
>>> measured_result("O=C1C2C=CC(C(O)c3cc(C(F)(F)F)cc(C(F)(F)F)c3)N(n3cnnc3)C2C(=O)N1Cc1ccccc1 (stereo unspecified)")
0.368
>>> measured_result("C=CCOC(=O)[C@H]1[C@@H]2C(=O)O[C@@H](c3ccccc3)[C@@H](c3ccccc3)N2[C@@H](c2ccc(OCCOC(=O)[C@H]3C[C@H]4C(=O)N[C@@H](CCCCNC(C)=O)C(=O)N4[C@H]3c3ccc(O)cc3)cc2)[C@]12C(=O)Nc1ccc(I)cc12")
1.3
>>> measured_result("C=C(CCCC)C(=O)CC[C@@H](OC(=O)c1ccccc1-c1ccccc1C(=O)O)c1ccc(OCCO)cc1")
0.135
>>> measured_result("C=CCNC(=O)[C@@H]1[C@H]2C(=O)O[C@H](c3ccccc3)[C@H](c3ccccc3)N2[C@H](c2ccc(O)cc2)[C@@]12C(=O)Nc1ccc(C#CCNC(N)=O)cc12")
-0.633
>>> measured_result("O=C1O[C@@H](c2ccccc2)[C@@H](c2ccccc2)N2[C@@H](c3ccccc3OCCO)[C@]3(C(=O)Nc4ccccc43)[C@@H](C(=O)Nc3nc4ccccc4s3)[C@H]12")
0.247

###

Experiment: basal S. cerevisiae growth modulation, no modifier, primary screen, OD600, strain BY4716, 24 h, basal condition (AID 1173)
Conditions: OD600, 24 h, higher = more signal, called active from +8 up or from −8 down
// reported z-score for each item listed
REPORTED PROPERTY: z-score

>>> measured_result("C=CCNC(=O)[C@H]1[C@@H]2C(=O)O[C@@H](c3ccccc3)[C@@H](c3ccccc3)N2[C@@H](c2ccccc2OCCO)[C@]12C(=O)Nc1ccc(C#CCC(C(=O)OC)C(=O)OC)cc12")
2.25
>>> measured_result("C=CCC(OC(C)=O)[C@@H]1[C@@H](N(Cc2ccc(-c3cccc(C(F)(F)F)c3)o2)C(=O)c2ccc(C)cc2)c2cc(OCCCO)ccc2N1C(=O)Cc1ccc2ccccc2c1 (stereo partly drawn)")
-0.219
>>> measured_result("O=C(OCc1ccccc1)C1=CCC2c3[nH]c4ccccc4c3C(=O)C1N2S(=O)(=O)c1ccccc1[N+](=O)[O-] (stereo not drawn)")
1.57

###

// reported composite z-score for each item listed
Biological target: Dickkopf-related protein 1 (Homo sapiens) (UniProt O94907)
Sequence (O94907 whole entry, looked up): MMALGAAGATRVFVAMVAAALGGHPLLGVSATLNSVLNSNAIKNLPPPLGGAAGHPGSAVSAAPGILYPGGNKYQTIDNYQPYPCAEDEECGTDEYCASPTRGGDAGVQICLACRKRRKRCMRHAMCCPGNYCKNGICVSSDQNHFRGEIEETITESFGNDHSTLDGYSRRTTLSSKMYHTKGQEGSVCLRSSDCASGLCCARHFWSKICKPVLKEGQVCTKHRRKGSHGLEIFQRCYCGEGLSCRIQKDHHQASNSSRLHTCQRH
Test: DKK1 binders on small-molecule microarrays, primary screen, biochemical, small-molecule microarray, 635 nm fluorescence scan (AID 1106);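 further: score merges emission near 667 nm with signal to noise over three replicate slides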
Settings: DKK1 binding, higher = more signal
REPORTED PROPERTY: composite z-score

>>> measured_result("[N-]=[N+]=Nc1ccccc1[C@@H]1OC(c2ccc(OCCCO)cc2)=N[C@]1(CCS(=O)(=O)c1ccccc1)C(N)=O")
-0.329
>>> measured_result("COCCOC(=O)N1C(=O)[C@@]2(c3cc(C#Cc4ccc(OC)cc4)ccc31)[C@H](c1ccccc1OCCO)N1[C@H](c3ccccc3)[C@H](c3ccccc3)OC(=O)[C@H]1[C@@H]2C(=O)NC[C@H](O)c1ccccc1")
0.696
>>> measured_result("NC(=O)NCC#Cc1ccc2c(c1)[C@]1(C(=O)N2)[C@H](c2ccccc2OCCO)N2[C@H](c3ccccc3)[C@H](c3ccccc3)OC(=O)[C@H]2[C@@H]1C(=O)Nc1nc2ccccc2s1")
0.0336

###

Test: HepG2 liver cancer cell viability effects, profiling panel, resazurin fluorescence, 24 h, PK04 Diversity Set (AID 1172); further: test concentration not given here
Conditions: higher = more signal
// reported z-score for each item listed
REPORTED PROPERTY: z-score

>>> measured_result("COCCOC(=O)N1C(=O)[C@@]2(c3cc(C#CCCO)ccc31)[C@H](C(N)=O)[C@H]1C(=O)O[C@H](c3ccccc3)[C@H](c3ccccc3)N1[C@@H]2c1ccc(O)cc1")
-0.256
>>> measured_result("O=C1O[C@H](c2ccccc2)[C@H](c2ccccc2)N2[C@H]1[C@@H](C(=O)N1CCCCCCC1)[C@]1(C(=O)Nc3ccc(C#CC4=CCCCC4)cc31)[C@H]2c1ccc(OCCO)cc1")
-0.881
>>> measured_result("COc1cc2c(cc1O)C(C1CC1)N(Cc1sc3ccccc3c1Cl)CC2 (stereo not given)")
-1.58
>>> measured_result("COC(=O)[C@@]1(Cc2ccc(OC)cc2)[C@H]2c3cc(C(=O)N(C)C)n(C)c3C[C@H]2CN1C(=O)c1ccccc1")
-0.105
>>> measured_result("COc1cc(C(O)C2C=CC3C(=O)NC(=O)C3N2Nc2ccccn2)cc(OC)c1OC (stereo not given)")
-0.927
>>> measured_result("CCCCN1CC=CC23O[C@@H]4C=CCCOC(=O)C4[C@H]2C(=O)N(CCCCCCO)[C@@H]3C1=O (stereo not given in full)")
0.0635
>>> measured_result("CCCC[C@@H]1C[C@H]1[C@@H](NC(=O)c1ccccc1)c1ccc(C(=O)OC)cc1")
-0.186
>>> measured_result("O=C1C2C=CC(C(O)Cc3ccccc3)N(n3cnnc3)C2C(=O)N1Cc1ccccc1 (stereo not given)")
-0.957
>>> measured_result("O=C1C2C=CC(C(O)CCc3ccccc3)N(Nc3ccccc3F)C2C(=O)N1c1ccccc1 (stereo not given)")
0.0011
>>> measured_result("CC(CO)N1C(=O)[C@@H]2C3C(=O)OCCC/C=C\\[C@H]3OC23C=CCN(C(C)(C)C)C(=O)[C@@H]13 (stereo not given in full)")
-0.181
>>> measured_result("CC1CC/C=C\\[C@H]2OC34C=CCN(C(C)(C)C)C(=O)[C@H]3N(C(C)CO)C(=O)[C@@H]4C2C(=O)O1 (stereo not given in full)")
0.0366
>>> measured_result("C=C(CCCC)C(=O)CC[C@@H](OC(=O)c1ccccc1-c1ccccc1C(=O)O)c1ccc(OCCO)cc1")
-0.268
>>> measured_result("CCOC(=O)C1=C[C@@H](C(C)(C)C)N(S(=O)(=O)c2ccc(C)cc2)[C@H]1c1ccc(F)cc1")
-0.457
>>> measured_result("COc1ccc(C#Cc2ccc3c(c2)[C@]2(C(=O)N3)[C@H](C(=O)NC[C@H](O)c3ccccc3)[C@H]3C(=O)O[C@H](c4ccccc4)[C@H](c4ccccc4)N3[C@@H]2c2ccc(O)cc2)cc1")
-0.475
>>> measured_result("C=CCOC(=O)[C@H]1[C@@H]2C(=O)O[C@@H](c3ccccc3)[C@@H](c3ccccc3)N2[C@@H](c2ccc(OCCOC(=O)[C@@H]3C[C@@H]4C(=O)N[C@@H](CC(C)C)C(=O)N4[C@@H]3c3ccc(O)cc3)cc2)[C@]12C(=O)Nc1ccccc12")
0.256
